B1: FCHO1 (parent)
chain: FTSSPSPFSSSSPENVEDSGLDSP

Variants of: B1
Experiment: protein stability index of a GFP-peptide fusion (GPS, HEK-293T) (PSI 1-6); higher = more stable;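 also: lentivirally expressed fusions sorted by FACS into six bins by GFP to DsRed ratio, PSI derived from sequencing read proportions per bin multiplied by bin number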
Settings: c terminus: a fixed tail appended
# protein stability index >= 2 gives satisfied, anything below gives not satisfied

P7A ... satisfied
D22F ... not satisfied
S23L ... satisfied
P5F ... satisfied
S3K ... satisfied

Hi team, for `E17L` , is the recorded protein stability index at or above 2?
not satisfied

In plain terms: is recorded protein stability index at least 2 for `G20T` ?
satisfied

Say whether `D18S` shows protein stability index of 2 or more.
not satisfied

Check if protein stability index >= 2 (inclusive). Item: `F1N`
satisfied

Does the variant `S12I` have recorded protein stability index that is 2 or more?
satisfied

Threshold query (protein stability index >= 2) on `L21S`
not satisfied

In plain terms: is recorded protein stability index at least 2 for `D18A` ?
not satisfied
